Test system: A. viscosus Tl4V-S. sanguis 34 coaggregation
Experiment: Coaggregation assay: inhibition of A. viscosus Tl4V-S. sanguis 34 coaggregation
Type: cell-based
Conditions: Table 1 carbohydrates; 2 hours, ambient temperature; average of independent experiments in duplicate (lactose n=13, galactose n=6); read-out: Concentration to effect 50% inhibition of coaggregation
quantity name: IC50 (mM)
Value expressed in mM; do not type the unit.

Which IC50 value belongs to N[C@H]1C(O)O[C@H](CO)[C@H](O)[C@@H]1O (stereo partly shown) [Galactoseamine, reference compound] ? 35

Each recorded value in this set is attributed to patent US4855128A.
